Tested on: DMS 114 small cell lung
Experiment: NCI tumour cell line growth inhibition, 48 h

[
  {
    "COMPOUND": "CN=C(NC(=S)N(C)C)N(C)C",
    "TGI": "> 100 µM"
  },
  {
    "COMPOUND": "O=C(CCC(=O)Nc1ccc(Cl)c(Cl)c1)CC(=O)c1ccc(F)cc1",
    "TGI": "> 100 µM"
  },
  {
    "COMPOUND": "O=[N+]([O-])c1ccc(Cl)c(C2CC(c3cccc4ccccc34)=Nc3ccccc3S2)c1 (stereo not drawn)",
    "TGI": "84.5 µM"
  }
]

* * *

Values of GI50 reported for SK-MEL-2 melanoma appear below.
ATTRIBUTE MEASURED: GI50

[
  {
    "COMPOUND": "COc1cc(-c2cc(-c3ccc(Nc4ccnc5cc(Cl)ccc45)cc3)nc(N3CCOCC3)n2)cc(OC)c1OC",
    "TEST RESULT": "11800 nM"
  },
  {
    "COMPOUND": "O=[N+]([O-])c1ccc(Oc2nc(Nc3ccc(O[C@H]4CO[C@H]5[C@@H]4OC[C@@H]5O)c(Cl)c3)ncc2F)c(Cl)c1",
    "TEST RESULT": "483 nM"
  },
  {
    "COMPOUND": "CCC(c1ccc(OC)cc1)C(CC)c1ccc(O)c(CN2CCN(C)CC2)c1 (centres undefined)",
    "TEST RESULT": "2850 nM"
  },
  {
    "COMPOUND": "COc1cccc(-c2nn(-c3ccccc3)cc2-c2ccnc(NCCNC(=O)Nc3cccc(C(F)(F)F)c3)c2)c1",
    "TEST RESULT": "1690 nM"
  },
  {
    "COMPOUND": "COc1cccc(/C=N/NC(=S)NC2CC3CCC2C3)c1O (centres undefined)",
    "TEST RESULT": "18200 nM"
  },
  {
    "COMPOUND": "COc1cc2c(cc1OC)C(Sc1ccc(SC)cc1)c1c(nc(N)c(C#N)c1N)O2 (centres undefined)",
    "TEST RESULT": "1480 nM"
  },
  {
    "COMPOUND": "Clc1ccc(-c2csc(Nc3cccc(-c4csc(-c5ccccc5)n4)c3)n2)cc1",
    "TEST RESULT": "10600 nM"
  },
  {
    "COMPOUND": "C=C1C(=O)O[C@H]2[C@H]1CC/C(COC(=O)CCSCCC(=O)OC/C1=C/CC[C@@]3(C)O[C@H]3[C@H]3OC(=O)C(=C)[C@@H]3CC1)=C\\CC[C@@]1(C)O[C@@H]21",
    "TEST RESULT": "2180 nM"
  },
  {
    "COMPOUND": "FC(F)(F)c1ccc(-c2cnc(-n3cc(COCCN4CCCCC4)nn3)nc2NC2CCCCCC2)cc1",
    "TEST RESULT": "4420 nM"
  }
]
